- ASSAY: yeast display, Sf9 membrane polyspecificity reagent, FACS + sequencing; frameworks hold sequencing errors
MEASURE NAME: polyreactivity (PSR sort gate)

{"columns": ["SEQUENCE TEXT", "VAL"],
 "data": [
  ["QVQLVESGGGLVQAGGSLRLSCAASGRTFTRYAMGWYRQAPGKERELVAAISWSGGSTYYADSVKGRFTISRDNAKNTVYLQMNSLKPEDTAVYYCNAYYYYPEFNYWGQGTQVTVSS", "high polyreactivity"],
  ["QVQLVESGGGLVQAGGSLRLSCAASGRIFLIYTMGWYRQAPGKERELVASITFRSGSTYYADSVKGRFTISRDNAKNTVYLQMNSLKPEDTAVYYCAADRGVLNQFDYWGQGTQVTVSS", "low polyreactivity"],
  ["QVHLVESGGGLVQAGGSLRLSCAASGYIFGGYAMGWSRQAPGKEREFVAAISDISGSTYYADSVKGRFTISRDNAKNTVYLQMNSLKPEDTAVYYGGHTSTADEDYWGQGTQVTVSS", "low polyreactivity"],
  ["QVQLVESGGGLVQAGGSLRLSCAASGSTFKYNAMGWYRQAPGKERELVASISRSGGSTYYADSVKGRFTISRDNAKNTVYLQMNSLKPEDTAVYYCNVRRFVHYEYWGQGTQVTVSS", "high polyreactivity"]
]}

Here's the next entry for you.
Data request: Answer with reported polyreactivity (PSR sort gate) of QVQLVESGGGLVQAGGSLRLSCAASGYIFATYAMGWYRQAPGKERELVAAISWSGGRTYYADSVKGRFTISRDNAKNTVYLQMNGLKPEVTAVYYCAAQSYSRMDYWGQGTQVTVSS
Data returned: high polyreactivity
